# target: hNLRP3 (Homo sapiens, UniProt Q96P20)
# Construct: THP-1 cells were purchased from the American Type Culture Collection
# Sequence (Q96P20 whole entry): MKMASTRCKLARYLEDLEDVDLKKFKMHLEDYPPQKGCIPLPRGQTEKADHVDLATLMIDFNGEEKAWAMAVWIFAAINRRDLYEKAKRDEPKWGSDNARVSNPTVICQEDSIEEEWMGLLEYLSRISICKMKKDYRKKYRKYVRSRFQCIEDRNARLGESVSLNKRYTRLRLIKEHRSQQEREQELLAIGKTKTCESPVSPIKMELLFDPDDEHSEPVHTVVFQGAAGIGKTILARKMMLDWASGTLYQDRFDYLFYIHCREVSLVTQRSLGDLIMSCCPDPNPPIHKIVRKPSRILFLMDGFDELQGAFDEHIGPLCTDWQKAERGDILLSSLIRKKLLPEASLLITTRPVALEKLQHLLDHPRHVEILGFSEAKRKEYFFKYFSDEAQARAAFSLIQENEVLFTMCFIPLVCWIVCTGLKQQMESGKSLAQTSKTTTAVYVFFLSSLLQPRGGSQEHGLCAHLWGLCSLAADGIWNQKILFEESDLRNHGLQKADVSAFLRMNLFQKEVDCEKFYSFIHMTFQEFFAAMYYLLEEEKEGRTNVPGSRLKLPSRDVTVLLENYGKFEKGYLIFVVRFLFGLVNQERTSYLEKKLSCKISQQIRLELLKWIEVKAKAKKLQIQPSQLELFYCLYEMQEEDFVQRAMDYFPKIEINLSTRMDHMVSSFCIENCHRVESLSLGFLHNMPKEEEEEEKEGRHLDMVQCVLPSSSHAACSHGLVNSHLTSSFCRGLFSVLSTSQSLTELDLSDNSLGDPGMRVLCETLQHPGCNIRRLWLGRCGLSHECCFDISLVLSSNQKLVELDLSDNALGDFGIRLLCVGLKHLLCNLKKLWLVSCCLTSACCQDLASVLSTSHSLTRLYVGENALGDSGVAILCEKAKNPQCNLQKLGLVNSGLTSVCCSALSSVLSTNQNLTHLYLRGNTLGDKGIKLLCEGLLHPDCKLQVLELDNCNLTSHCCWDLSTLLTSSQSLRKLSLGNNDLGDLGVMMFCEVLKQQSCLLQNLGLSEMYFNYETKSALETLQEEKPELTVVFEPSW
# assay_method_text: Measurement of IL-1β production in PMA-differentiated THP-1 cells (hNLRP3 agonist; ELISA, alternative and hTRF procedures)
# if measured EC50 < 3 µM: fulfilled  # else: not fulfilled

>  <molecular_string>
CCC(=O)N(C)Cc1nc2c(N)nc3cc(-c4cc[nH]n4)ccc3c2[nH]1

>  <assigned_category>
fulfilled

$$$$
>  <molecular_string>
CCN(Cc1nc2c(N)nc3ccc(Br)cc3c2[nH]1)S(C)(=O)=O

>  <assigned_category>
not fulfilled

$$$$
>  <molecular_string>
CCN(Cc1nc2c(N)nc3ccccc3c2n1CCC(=O)N1CCOCC1)C(=O)OC(C)(C)C

>  <assigned_category>
not fulfilled

$$$$
>  <molecular_string>
CCN(Cc1nc2c(N)nc3cc(-c4ccccc4)ccc3c2[nH]1)C(C)=O

>  <assigned_category>
fulfilled

$$$$
>  <molecular_string>
CCCc1ccc2c(c1)nc(N)c1nc(CN(CC)C(C)=O)[nH]c12

>  <assigned_category>
fulfilled

$$$$
>  <molecular_string>
CCN(Cc1nc2c(N)nc3cc(-c4cccnc4)ccc3c2[nH]1)C(C)=O

>  <assigned_category>
not fulfilled

$$$$
>  <molecular_string>
Nc1nc2ccccc2c2[nH]c(CN3CCCCC3=O)nc12

>  <assigned_category>
not fulfilled

$$$$
>  <molecular_string>
CCN(Cc1nc2c(N)nc3cc(C4=CCCC4)ccc3c2[nH]1)C(C)=O

>  <assigned_category>
fulfilled

$$$$
>  <molecular_string>
Nc1nc2cc(-c3cc[nH]n3)ccc2c2[nH]c(CNC(=O)C3CC3)nc12

>  <assigned_category>
fulfilled

$$$$
>  <molecular_string>
Nc1nc2cc(-c3cc[nH]n3)ccc2c2[nH]c(CN3C[C@H](c4ccccc4)CC3=O)nc12

>  <assigned_category>
not fulfilled

$$$$
>  <molecular_string>
CN(C)C(=O)CCCn1c(CN2CCCC2=O)nc2c(N)nc3cc(Br)ccc3c21

>  <assigned_category>
not fulfilled

$$$$
>  <molecular_string>
CCN(Cc1nc2c(N)nc3cc(-c4cc[nH]n4)ccc3c2[nH]1)C(=O)CO

>  <assigned_category>
not fulfilled

$$$$

###

# target: hNLRP3 (Homo sapiens, UniProt Q96P20)
# Construct: THP-1 cells were purchased from the American Type Culture Collection
# assay_method_text: Measurement of IL-1β production in PMA-differentiated THP-1 cells (hNLRP3 agonist; ELISA, alternative and hTRF procedures)
Rule for this label: Fulfilled means EC50 is less than 7 µM; Not fulfilled means EC50 is at least 7 µM.

>  <molecular_string>
CC(=O)N(Cc1nc2c(N)nc3cc(-c4cc[nH]n4)ccc3c2[nH]1)C(C)C

>  <assigned_category>
Not fulfilled

$$$$
>  <molecular_string>
CCN(Cc1nc2c(N)nc3cc(-c4cccs4)ccc3c2n1CC)C(C)=O

>  <assigned_category>
Fulfilled

$$$$
>  <molecular_string>
CCN(C=O)Cc1nc2c(N)nc3cc(-c4cc[nH]n4)ccc3c2[nH]1

>  <assigned_category>
Fulfilled

$$$$
>  <molecular_string>
COc1ccc(-c2ccc3c(c2)nc(N)c2nc(CN4CCCC4=O)[nH]c23)cn1

>  <assigned_category>
Not fulfilled

$$$$
>  <molecular_string>
CCNCc1nc2c(N)nc3cc(-n4cccn4)ccc3c2n1CC

>  <assigned_category>
Fulfilled

$$$$
>  <molecular_string>
CCN(Cc1nc2c(N)nc3cc(C4CC4)ccc3c2n1Cc1ccc(OC)cc1)C(C)=O

>  <assigned_category>
Not fulfilled

$$$$
